# experimental-protocol: chemical genetic growth profiling, strain panel (AID 1159580);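 also: tested at 20 µM; growth read once vehicle control cultures reached saturation at 30 °C; 1 = growth at the plate median or of vehicle wells; lower values mean less growth of the strain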
# measurement-conditions: S. cerevisiae deletion strains, growth OD, locus YLR384C, strain iki3, hits give low values
Among all 5,500 compounds or so, about 2,000 (36%) were called active. About 18% were inconclusive and are not listed. This is one part of the list.
measure-name: normalized growth

Solved entries (count: 2):
[[record]]
compound = "Cc1[nH]ccc2c1[nH]c1cc(=O)ccc12"
measure_name = "normalized growth"
value_observed = "0.999 (inactive)"

[[record]]
compound = "COc1cccc2c(C)cc(=O)[nH]c12"
measure_name = "normalized growth"
value_observed = "0.981 (inactive)"


Tell me its normalized growth given Oc1cc2c(cc1O)C1c3ccc(O)c(O)c3OCC1(O)C2 (stereo not given) as the entry.
1 (inactive)

Tell me its normalized growth given Oc1ccc2c(c1)OCC1(O)Cc3cc(O)c(O)cc3C21 (stereo not given) as the entry.
1.02 (inactive)

Tell me its normalized growth given CCC1OC(=O)[C@H](C)C(=O)[C@H](C)[C@@H](OC2O[C@H](C)C[C@H](N(C)C)[C@H]2O)[C@](C)(OC)C2(CCCn3cnc(-c4cccnc4)c3)C[C@@H](C)C(=O)[C@H](C)[C@H]3N(C2)C(=O)O[C@]13C (stereo not given in full) as the entry.
0.995 (inactive)

###

# experimental-protocol: chemical genetic growth profiling, strain panel (AID 1159580);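 also: tested at 20 µM; growth read once vehicle control cultures reached saturation at 30 °C; 1 = growth at the plate median or of vehicle wells; lower values mean less growth of the strain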
# measurement-conditions: S. cerevisiae deletion strains, growth OD, locus YDL005C, strain med2, hits give low values
Screen size: about 5,500 compounds; about 2,000 (36%) were called active. Inconclusive results (about 18%) are left out. The list shows a part of the results.
measure-name: normalized growth
The reply should be a number, written without any unit.

Solved entries (count: 8):
[[record]]
compound = "O=C1[O][Bi][O]c2ccccc21"
measure_name = "normalized growth"
value_observed = 1.05

[[record]]
compound = "COc1ccc(-c2cc(=O)c3c(O)cc(O[C@H]4O[C@H](CO[C@@H]5O[C@@H](C)[C@H](O)[C@@H](O)[C@H]5O)[C@@H](O)[C@H](O)[C@H]4O)cc3o2)cc1"
measure_name = "normalized growth"
value_observed = 1

[[record]]
compound = "CC(C)c1c(O)c(-c2cc3c(c(C(C)C)c2O)CCC2C(C)(C)CCC[C@]32C)cc2c1CCC1C(C)(C)CCC[C@]21C (some centres not stated)"
measure_name = "normalized growth"
value_observed = 0.964

[[record]]
compound = "CNC(C)C(O)c1ccccc1 (configuration not stated)"
measure_name = "normalized growth"
value_observed = 1.02

[[record]]
compound = "C=C[C@H]1CN2CC[C@H]1C[C@@H]2[C@@H](OC(=O)OCC)c1ccnc2ccc(OC)cc12"
measure_name = "normalized growth"
value_observed = 0.978

[[record]]
compound = "CC(=O)[C@@]1(O)CCC2C3C[C@H](C)C4=CC(=O)C=CC4(C)[C@@]3(F)[C@@H](O)C[C@@]21C (some centres not stated)"
measure_name = "normalized growth"
value_observed = 0.962

[[record]]
compound = "OCC(O)C(O)C(O)C(O)C(O)CO (configuration not stated)"
measure_name = "normalized growth"
value_observed = 1

[[record]]
compound = "COc1cc(OC)c2c(=O)c(O)c(-c3ccc(OC)c(OC)c3)oc2c1"
measure_name = "normalized growth"
value_observed = 0.982


Tell me its normalized growth given CCCCCC(=O)Cc1cc(O)cc(O)c1C(=O)Oc1cc(CC(=O)CCCCC)c(C(=O)O)c(OC)c1 as the entry.
0.954

Tell me its normalized growth given COc1cc(O)c2c(=O)c(O)c(-c3ccc(O)c(O)c3)oc2c1 as the entry.
1

Tell me its normalized growth given CCCCCc1c2c(cc(O)c1C(=O)O)OC(=O)c1c(cc(OC)cc1C(=O)CCCC)O2 as the entry.
0.977

Tell me its normalized growth given CC(C)(C)NCC(O)c1cc(Cl)c(N)c(Cl)c1 (configuration not stated) as the entry.
0.996
